In this section, each of the compounds is paired with its reported pIC50.
# assayed_target: PI3Kγ (p110γ) Recombinant Human Protein (Homo sapiens (Human), UniProt P48736)
# Sequence (P48736 whole entry): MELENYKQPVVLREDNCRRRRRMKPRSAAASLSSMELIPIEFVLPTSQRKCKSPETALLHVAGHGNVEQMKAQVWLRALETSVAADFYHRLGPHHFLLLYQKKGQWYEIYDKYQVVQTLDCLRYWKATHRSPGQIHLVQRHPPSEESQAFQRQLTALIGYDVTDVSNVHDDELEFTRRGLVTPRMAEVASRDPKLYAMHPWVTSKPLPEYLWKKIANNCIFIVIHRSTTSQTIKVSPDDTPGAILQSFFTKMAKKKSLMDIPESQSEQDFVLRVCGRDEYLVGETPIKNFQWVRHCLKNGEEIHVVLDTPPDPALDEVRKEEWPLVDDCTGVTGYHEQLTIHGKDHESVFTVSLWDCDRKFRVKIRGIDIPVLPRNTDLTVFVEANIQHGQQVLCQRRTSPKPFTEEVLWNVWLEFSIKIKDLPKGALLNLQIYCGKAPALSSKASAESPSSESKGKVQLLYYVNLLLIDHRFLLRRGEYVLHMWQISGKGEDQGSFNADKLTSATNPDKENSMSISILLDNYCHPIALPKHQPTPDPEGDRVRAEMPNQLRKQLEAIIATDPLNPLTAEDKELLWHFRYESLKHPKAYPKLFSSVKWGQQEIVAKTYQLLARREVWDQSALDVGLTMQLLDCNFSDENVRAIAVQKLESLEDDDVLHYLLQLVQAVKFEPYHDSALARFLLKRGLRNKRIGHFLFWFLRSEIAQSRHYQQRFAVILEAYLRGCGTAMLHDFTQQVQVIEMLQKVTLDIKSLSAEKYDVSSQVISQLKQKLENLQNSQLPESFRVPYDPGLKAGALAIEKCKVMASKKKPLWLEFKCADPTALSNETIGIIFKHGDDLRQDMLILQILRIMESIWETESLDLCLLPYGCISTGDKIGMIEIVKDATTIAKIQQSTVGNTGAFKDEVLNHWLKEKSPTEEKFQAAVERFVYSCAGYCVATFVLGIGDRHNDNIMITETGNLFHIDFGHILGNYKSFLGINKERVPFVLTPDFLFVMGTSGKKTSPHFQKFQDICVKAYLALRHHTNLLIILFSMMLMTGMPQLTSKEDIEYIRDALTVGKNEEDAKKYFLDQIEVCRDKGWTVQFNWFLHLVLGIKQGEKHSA
# method_summary: PI3K-γ scintillation proximity assay
# Assay type: biochemical
# measurement_parameters: Table A3; scintillation proximity assay, recombinant human p110γ
pIC50: −log10 of the molar value. Structures can show the parent of a compound that is named as a salt.

Query: Please look at this compound and report its pIC50: COCCn1cc(-c2nc(-c3cc(C(O)(C(N)=O)C(F)(F)F)ccc3C)cnc2N)cn1 (stereo not shown) [Example 79, trifluoroacetate]
Response: > 7.00

Query: Answer with the recorded pIC50 of Cc1ccc(C(O)(C(N)=O)C(F)(F)F)cc1-c1cnc(N)c(-c2cnn(C3CCOCC3)c2)n1 (stereo not shown) [Example 77, trifluoroacetate] only.
Response: > 7.00

Query: State its pIC50: Cc1ccc(C(O)(CNC=O)C(F)(F)F)cc1-c1cnc(N)c(-c2cn[nH]c2)n1 (stereo not shown) [Example 103, trifluoroacetate]
Response: > 7.00

Query: Return reported pIC50. Input compound: Cc1ccc(C(O)(C(N)=O)C(F)(F)F)cc1-c1cnc(N)c(-c2cnnn2C)n1 (stereo not shown) [Example 74, trifluoroacetate]
Response: > 7.00
